Experimental target: T1, mouse DLL4 on cells (mouse, UniProt Q9JI71 27-686)
T1 construct: whole, on cells; also called mouse DLL4-293G; mu DLL4 cells
T1 sequence (Q9JI71 27-686): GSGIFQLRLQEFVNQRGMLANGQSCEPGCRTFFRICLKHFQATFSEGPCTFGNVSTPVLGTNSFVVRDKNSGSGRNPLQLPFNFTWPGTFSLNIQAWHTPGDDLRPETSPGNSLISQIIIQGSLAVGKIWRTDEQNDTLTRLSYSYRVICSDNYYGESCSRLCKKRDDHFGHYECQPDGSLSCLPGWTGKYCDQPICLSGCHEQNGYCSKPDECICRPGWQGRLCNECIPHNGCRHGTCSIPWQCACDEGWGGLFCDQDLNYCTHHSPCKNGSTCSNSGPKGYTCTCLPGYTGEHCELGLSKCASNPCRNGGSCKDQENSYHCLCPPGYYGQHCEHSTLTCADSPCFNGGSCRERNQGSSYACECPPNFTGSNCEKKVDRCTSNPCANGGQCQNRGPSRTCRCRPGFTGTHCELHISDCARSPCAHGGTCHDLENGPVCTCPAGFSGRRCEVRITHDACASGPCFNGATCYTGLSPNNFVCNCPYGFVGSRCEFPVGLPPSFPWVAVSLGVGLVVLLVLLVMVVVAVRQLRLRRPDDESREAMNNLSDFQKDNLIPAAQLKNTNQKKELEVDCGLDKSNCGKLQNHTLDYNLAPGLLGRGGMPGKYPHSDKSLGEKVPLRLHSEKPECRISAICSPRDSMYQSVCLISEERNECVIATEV
Assay details: competition FACS: huNotch-1 to DLL4 cells
Metric name: IC50 (nM)
Dear colleague, please return just the value in nM, with no unit written.

Tell me IC50 reported for 37D10 chimeric antibody (antibody, human IgG1, V domains shown, also called Chimera of 37D10) VH: AVQLVESGGGLVQPKESLKISCAASGFTFSNAAMYWVRLAPGKGLEWVARIRTKPNNYATYYAESVKGRFTISRDDSKSMVYVQMDNLKTEDTAMYYCTAAPWRDSYAHVYWGQGVMVTVSS VL: DIQMTQSPPVLSASVGDRVTLSCKASQNIHKNLDWYQQKHGDAPKLLIYYTDHLQTGVPSRFSGSGSATDYTLTISSLQPEDVATYYCYQYNGGPFTFGSGTKLEIKR
4.39

Tell me IC50 reported for 14A11 chimeric antibody (antibody, human IgG1, V domains shown, also called Chimera of 14A11) VH: EVQLQQSGPELAKPGSSVKISCKASGYTFTNSYISWIKQTTGQGLEYVGYINTGSGGADYNEKFKGKATLTVDKSSRTAFMQLSSLTPGDSAVYYCAKSILLGSTCYFDYWGQGVLVTVSS VL: NTVLTQSPALAVSLGQRVTISCKASRSVSSPMYSYIYWYQQKPGQQPKLLIYRASTLASGVPARFSGSGSGTDFTLNIDPVEADDIATYFCQQSWSDPFTFGSGTKLEIKR
1.39

Tell me IC50 reported for 1A11 chimeric antibody (antibody, human IgG1, V domains shown, also called Chimera of 1A11; 1A11 (chimera)) VH: EVQLVESGGGLVQPGRSMKLSCAASGFTFRNFPMAWVRQAPTRGLEWVATISSSDGTTYYRDSVKGRFTISRDNAKSTLYLQVNSLRSEDTATYYCSRGYYNSPFAYWGQGTLVTVSS VL: DIQMTQSPASLSASLGETVTIECRASEDIYSNLAWYQQKPGNSPQLLIFDTNNLADGVPSRFSGSGSGTQSSLKINSLQSEDVASYFCQQYNNYPPTFGGGTKLELKR
0.682
